Molecular target: RET(V804M)-KIF5B (Homo sapiens, UniProt P07949, V804M)
Sequence (P07949 713-1114 V804M): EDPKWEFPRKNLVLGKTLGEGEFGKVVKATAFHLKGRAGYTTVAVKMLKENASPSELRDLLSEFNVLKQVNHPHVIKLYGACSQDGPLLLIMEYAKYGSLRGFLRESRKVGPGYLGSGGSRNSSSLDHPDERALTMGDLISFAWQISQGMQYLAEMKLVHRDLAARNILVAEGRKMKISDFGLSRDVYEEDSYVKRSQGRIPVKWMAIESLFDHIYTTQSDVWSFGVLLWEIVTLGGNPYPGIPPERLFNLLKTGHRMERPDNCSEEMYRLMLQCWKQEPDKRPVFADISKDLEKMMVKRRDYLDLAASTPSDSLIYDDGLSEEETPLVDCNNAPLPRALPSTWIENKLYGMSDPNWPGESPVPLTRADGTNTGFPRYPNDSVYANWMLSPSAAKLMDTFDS
Sequence (P33176 2-575 partner): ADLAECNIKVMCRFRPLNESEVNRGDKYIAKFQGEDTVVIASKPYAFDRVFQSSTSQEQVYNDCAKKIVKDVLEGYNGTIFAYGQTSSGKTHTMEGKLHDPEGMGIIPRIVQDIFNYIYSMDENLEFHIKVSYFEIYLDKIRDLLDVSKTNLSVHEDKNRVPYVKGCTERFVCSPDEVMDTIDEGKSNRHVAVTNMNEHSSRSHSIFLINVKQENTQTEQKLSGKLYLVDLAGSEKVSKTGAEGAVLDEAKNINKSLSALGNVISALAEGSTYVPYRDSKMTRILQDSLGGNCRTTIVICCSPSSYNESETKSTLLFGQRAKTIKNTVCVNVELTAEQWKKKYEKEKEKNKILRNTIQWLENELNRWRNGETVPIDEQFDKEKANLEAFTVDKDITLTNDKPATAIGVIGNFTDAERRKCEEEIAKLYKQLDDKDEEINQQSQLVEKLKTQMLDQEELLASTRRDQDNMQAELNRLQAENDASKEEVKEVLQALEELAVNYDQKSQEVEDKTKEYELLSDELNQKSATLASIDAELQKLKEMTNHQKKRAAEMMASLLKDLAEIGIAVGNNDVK
Experiment: Kinase panel inhibition, radiolabeled [γ-33P] ATP (Reaction Biology Corp)
Format: biochemical
Details: compound at 0.1 uM; ATP 10 µM; read-out: % Enzyme Activity (relative to DMSO controls) RET (V804M )-KIF5B
endpoint.label: remaining activity at 0.1 µM (%)
Write the number in % without appending the unit.

Param item = CCNc1cc(-c2ccc(N3CC[C@H](NC(=O)c4ccccc4F)C3)nc2)c2nccnc2c1 [Example 12] ; retrieve measured remaining activity at 0.1 µM.
5.5

# iterate: Nc1cc(-c2ccc(N3CC[C@H](NC(=O)c4ccccc4F)C3)nc2)c2nccnc2c1 [Example 10]
5.5

# iterate: CCNc1cc(C#CCN2CCOCC2)c2nccnc2c1 [Example 31]
109

# iterate: O=C(Nc1cc(-c2ccc(N3CC(Oc4cccc(F)c4)C3)nc2)c2nccnc2c1)c1ccco1 [Example 8]
65.1

Could you now consider this next molecule?
Param item = CCNc1cc(Nc2cc(C)[nH]n2)c2nccnc2c1 [Example 32] ; retrieve measured remaining activity at 0.1 µM.
85.9

====

Biological target: RET (Homo sapiens, UniProt P07949)
Construct: purchased Reaction Biology Corp
Test: Kinase panel inhibition, radiolabeled [γ-33P] ATP (Reaction Biology Corp)
Assay type: biochemical
Conditions: compound at 1 uM; ATP 10 µM; read-out: % Enzyme Activity (relative to DMSO controls) RET
Lab note: compare remaining activity at 1 µM with 90%, writing criterion met if less and criterion not met if equal or more.

Given CCNc1cc(Br)c2nccnc2c1 [Intermediate Compound 18, 8-Bromo-N-ethylquinoxalin-6-amine] , is recorded remaining activity at 1 µM strictly lower than 90%?
criterion met

# iterate: Nc1cc(-c2ccc(N3CC(Oc4cccc(F)c4)C3)nc2)c2nccnc2c1
criterion met

# iterate: O=C(Nc1cc(-c2ccc(F)nc2)c2nccnc2c1)c1ccco1 [Intermediate Compound 13]
criterion not met

# iterate: CCN(CC)c1cc(-c2ccc(N3CC(Oc4cccc(F)c4)C3)nc2)c2nccnc2c1
criterion met

# iterate: CCNc1cc(-c2ccc(F)nc2)c2nccnc2c1 [Intermediate Compound 6]
criterion met

---
Given CCNc1cc(-c2ccc(N3CC(Oc4cccc(F)c4)C3)nc2)c2nccnc2c1 , is recorded remaining activity at 1 µM strictly lower than 90%?
criterion met

# iterate: O=[N+]([O-])c1cc(-c2ccc(N3CC(Oc4cccc(F)c4)C3)nc2)c2nccnc2c1
criterion met

# iterate: O=[N+]([O-])c1cc(-c2ccc(F)nc2)c2nccnc2c1 [Intermediate Compound 15]
criterion not met

# iterate: O=C(Nc1cc(Br)c2nccnc2c1)c1ccco1 [Intermediate Compound 11]
criterion not met

====

Target: RET (G810S/M918T) (Homo sapiens, UniProt P07949, G810S/M918T)
Construct: purchased Reaction Biology Corp
Test: Kinase panel inhibition, radiolabeled [γ-33P] ATP (Reaction Biology Corp)
Assay type: biochemical
Conditions: compound at 10 uM; ATP 1 µM; Data 2; read-out: % Enzyme Activity (relative to DMSO controls) RET (G810S/M918T) Data 2
This section presents compounds with their documented remaining activity at 10 µM values.
Write the number in % without appending the unit.

Param item = Nc1cc(-c2ccc(N3CCOCC3)nc2)c2nccnc2c1 ; retrieve measured remaining activity at 10 µM.
26.3

# iterate: CN1CCN(c2ccc(-c3cc(N)cc4nccnc34)cn2)CC1
45

# iterate: CNc1cc(-c2ccc(N3CC[C@H](NC(=O)c4ccccc4F)C3)nc2)c2nccnc2c1
-0.85

---
Param item = Nc1cc(-c2cnc(N3CC(Oc4cccc(F)c4)C3)nc2)c2nccnc2c1 ; retrieve measured remaining activity at 10 µM.
0.11

# iterate: Nc1cc(-c2ccc(N3CC[C@H](NC(=O)c4ccccc4F)C3)nc2)c2nccnc2c1
-0.6

====

Target: RET-CCDC6 (PTC1) (Homo sapiens, UniProt P07949)
Construct: purchased Reaction Biology Corp
Test: Kinase panel inhibition, radiolabeled [γ-33P] ATP (Reaction Biology Corp)
Type: biochemical
Conditions: compound at 10 uM; ATP 1 µM; Data 2; read-out: % Enzyme Activity (relative to DMSO controls) RET-CCDC6 (PTC1) Data 2
This section presents compounds with their documented remaining activity at 10 µM values.
Write the number in % without appending the unit.

Some solved cases for reference:
Param item = CCN1CCN(c2ccc(-c3cc(N)cc4nccnc34)cn2)CC1 ; retrieve measured remaining activity at 10 µM.
28

# iterate: CCNc1cc(-c2ccc(N3CCN(Cc4ccc(Br)cc4)CC3)nc2)c2nccnc2c1
1.32

# iterate: CC(C)Nc1cc(-c2ccc(N3CC(Oc4cccc(F)c4)C3)nc2)c2nccnc2c1
0.72

---
Param item = CC(C)Nc1cc(-c2ccc(N3CC[C@H](NC(=O)c4ccccc4F)C3)nc2)c2nccnc2c1 ; retrieve measured remaining activity at 10 µM.
0.72

# iterate: CNc1cc(-c2ccc(N3CC[C@H](NC(=O)c4ccccc4F)C3)nc2)c2nccnc2c1
1.07

# iterate: Nc1cc(-c2ccc(N3CCOCC3)nc2)c2nccnc2c1
6.45

# iterate: CCCCNc1cc(-c2ccc(N3CC(Oc4cccc(F)c4)C3)nc2)c2nccnc2c1
1.32

# iterate: CC(C)CNc1cc(-c2ccc(N3CC[C@H](NC(=O)c4ccccc4F)C3)nc2)c2nccnc2c1
1.51

# iterate: CCNc1cc(Nc2cc(C)[nH]n2)c2nccnc2c1
4.58

====

Tested on: BaF3 KIF5B-RET (V804M)
Assay: Cell proliferation inhibition, Cell Counting Kit-8, Ba/F3 cell line
Assay type: cell-based, rodent
Details: Mus musculus, 72 hours incubation, read-out: Cell Viability of BaF3 Cell lines (IC50 in uM) KIF5B-RET (V804M)
Description: To evaluate the inhibitory activity of the compounds represented by Formula I or Formula IV according to the present invention against RET mutation-driven cell growth in the Ba/F3 cell line and against cell growth in the non-small cell lung cancer cell line A-549, the following experiment was performed. […]
endpoint.label: IC50 (µM)
Write the number in µM without appending the unit.

Param item = CCNc1cc(-c2ccc(N3CC(Oc4cccc(F)c4)C3)nc2)c2nccnc2c1 ; retrieve measured IC50.
0.12

---
Param item = Nc1cc(-c2ccc(N3CC(Oc4cccc(F)c4)C3)nc2)c2nccnc2c1 ; retrieve measured IC50.
1.02

====

Target: RET (G810S/M918T) (Homo sapiens, UniProt P07949, G810S/M918T)
Construct: purchased Reaction Biology Corp
Assay: Kinase panel inhibition, radiolabeled [γ-33P] ATP (Reaction Biology Corp)
Assay type: biochemical
Settings: compound at 10 uM; ATP 1 µM; Data 1; read-out: % Enzyme Activity (relative to DMSO controls) RET (G810S/M918T) Data 1
endpoint.label: remaining activity at 10 µM (%)
Write the number in % without appending the unit.

Param item = CCN1CCN(c2ccc(-c3cc(N)cc4nccnc34)cn2)CC1 [Example 21] ; retrieve measured remaining activity at 10 µM.
66.7

# iterate: O=C(Nc1cc(-c2ccc(N3CC[C@H](NC(=O)c4ccccc4F)C3)nc2)c2nccnc2c1)c1ccco1 [Example 17]
11.9

# iterate: Nc1cc(-c2ccc(N3CCOCC3)nc2)c2nccnc2c1 [Example 19]
27.3

# iterate: CCNc1cc(-c2ccc(N3CC[C@H](NC(=O)c4ccccc4F)C3)nc2)c2nccnc2c1 [Example 12]
2.65

---
Param item = Nc1cc(-c2ccc(N3CCC(N4CCOCC4)CC3)nc2)c2nccnc2c1 [Example 25] ; retrieve measured remaining activity at 10 µM.
46.8

# iterate: CCNc1cc(C#CCN2CCOCC2)c2nccnc2c1 [Example 31]
61.7
